- TEST_SUMMARY: Physicochemical characterization of lipid microsuspensions (pH, viscosity, osmolality, particle size)
- EXPERIMENTAL_SETUP: Table 9, lipid microsuspension containing the drug
MEASUREMENT_TYPE: Viscosity at 15 rpm (cP)

* C[C@@H]1C[C@H]2[C@@H]3CCC4=CC(=O)C=C[C@]4(C)[C@@]3(F)[C@@H](O)C[C@]2(C)[C@@]1(O)C(=O)CO | 17.7
* C=CC[C@@H]1/C=C(\C)C[C@H](C)C[C@H](OC)[C@H]2O[C@@](O)(C(=O)C(=O)N3CCCC[C@H]3C(=O)O[C@H](/C(C)=C/[C@@H]3CC[C@@H](O)[C@H](OC)C3)[C@H](C)[C@@H](O)CC1=O)[C@H](C)C[C@@H]2OC | 15.7
* CCOC(=O)O[C@]1(C(=O)OCCl)CC[C@H]2[C@@H]3CCC4=CC(=O)C=C[C@]4(C)[C@H]3[C@@H](O)C[C@@]21C [Loteprednol etabonate, loteprednol etabonate] | 16.1
* CO[C@H]1C[C@@H]2CC[C@@H](C)[C@@](O)(O2)C(=O)C(=O)N2CCCC[C@H]2C(=O)O[C@H]([C@H](C)C[C@@H]2CC[C@@H](O)[C@H](OC)C2)CC(=O)[C@H](C)/C=C(\C)[C@@H](O)[C@@H](OC)C(=O)[C@H](C)C[C@H](C)/C=C/C=C/C=C/1C | 16.5

###

Each entry below lists one item and its recorded Particle size Dx(50) value.
- TEST_SUMMARY: Physicochemical characterization of lipid microsuspensions (pH, viscosity, osmolality, particle size)
- EXPERIMENTAL_SETUP: Table 9, lipid microsuspension containing the drug
MEASUREMENT_TYPE: Particle size Dx(50)

- CO[C@H]1C[C@@H]2CC[C@@H](C)[C@@](O)(O2)C(=O)C(=O)N2CCCC[C@H]2C(=O)O[C@H]([C@H](C)C[C@@H]2CC[C@@H](O)[C@H](OC)C2)CC(=O)[C@H](C)/C=C(\C)[C@@H](O)[C@@H](OC)C(=O)[C@H](C)C[C@H](C)/C=C/C=C/C=C/1C: 5.7 μm
- C[C@@H]1C[C@H]2[C@@H]3CCC4=CC(=O)C=C[C@]4(C)[C@@]3(F)[C@@H](O)C[C@]2(C)[C@@]1(O)C(=O)CO: 4.6 μm
- C=CC[C@@H]1/C=C(\C)C[C@H](C)C[C@H](OC)[C@H]2O[C@@](O)(C(=O)C(=O)N3CCCC[C@H]3C(=O)O[C@H](/C(C)=C/[C@@H]3CC[C@@H](O)[C@H](OC)C3)[C@H](C)[C@@H](O)CC1=O)[C@H](C)C[C@@H]2OC: 5.3 μm
- CCOC(=O)O[C@]1(C(=O)OCCl)CC[C@H]2[C@@H]3CCC4=CC(=O)C=C[C@]4(C)[C@H]3[C@@H](O)C[C@@]21C [Loteprednol etabonate, loteprednol etabonate]: 6.2 μm

###

- TEST_SUMMARY: Physicochemical characterization of lipid microsuspensions (pH, viscosity, osmolality, particle size)
- EXPERIMENTAL_SETUP: Table 9, lipid microsuspension containing the drug
MEASUREMENT_TYPE: Osmolality (mOsmol/kg)

* C=CC[C@@H]1/C=C(\C)C[C@H](C)C[C@H](OC)[C@H]2O[C@@](O)(C(=O)C(=O)N3CCCC[C@H]3C(=O)O[C@H](/C(C)=C/[C@@H]3CC[C@@H](O)[C@H](OC)C3)[C@H](C)[C@@H](O)CC1=O)[C@H](C)C[C@@H]2OC | 304
* CO[C@H]1C[C@@H]2CC[C@@H](C)[C@@](O)(O2)C(=O)C(=O)N2CCCC[C@H]2C(=O)O[C@H]([C@H](C)C[C@@H]2CC[C@@H](O)[C@H](OC)C2)CC(=O)[C@H](C)/C=C(\C)[C@@H](O)[C@@H](OC)C(=O)[C@H](C)C[C@H](C)/C=C/C=C/C=C/1C | 309
* CCOC(=O)O[C@]1(C(=O)OCCl)CC[C@H]2[C@@H]3CCC4=CC(=O)C=C[C@]4(C)[C@H]3[C@@H](O)C[C@@]21C [Loteprednol etabonate, loteprednol etabonate] | 282
* C[C@@H]1C[C@H]2[C@@H]3CCC4=CC(=O)C=C[C@]4(C)[C@@]3(F)[C@@H](O)C[C@]2(C)[C@@]1(O)C(=O)CO | 297
